The entries below are paired with their reported IC50.
# target_entity: Voltage-dependent L-type calcium channel subunit alpha-1C (Oryctolagus cuniculus)
# Sequence (P15381 whole entry): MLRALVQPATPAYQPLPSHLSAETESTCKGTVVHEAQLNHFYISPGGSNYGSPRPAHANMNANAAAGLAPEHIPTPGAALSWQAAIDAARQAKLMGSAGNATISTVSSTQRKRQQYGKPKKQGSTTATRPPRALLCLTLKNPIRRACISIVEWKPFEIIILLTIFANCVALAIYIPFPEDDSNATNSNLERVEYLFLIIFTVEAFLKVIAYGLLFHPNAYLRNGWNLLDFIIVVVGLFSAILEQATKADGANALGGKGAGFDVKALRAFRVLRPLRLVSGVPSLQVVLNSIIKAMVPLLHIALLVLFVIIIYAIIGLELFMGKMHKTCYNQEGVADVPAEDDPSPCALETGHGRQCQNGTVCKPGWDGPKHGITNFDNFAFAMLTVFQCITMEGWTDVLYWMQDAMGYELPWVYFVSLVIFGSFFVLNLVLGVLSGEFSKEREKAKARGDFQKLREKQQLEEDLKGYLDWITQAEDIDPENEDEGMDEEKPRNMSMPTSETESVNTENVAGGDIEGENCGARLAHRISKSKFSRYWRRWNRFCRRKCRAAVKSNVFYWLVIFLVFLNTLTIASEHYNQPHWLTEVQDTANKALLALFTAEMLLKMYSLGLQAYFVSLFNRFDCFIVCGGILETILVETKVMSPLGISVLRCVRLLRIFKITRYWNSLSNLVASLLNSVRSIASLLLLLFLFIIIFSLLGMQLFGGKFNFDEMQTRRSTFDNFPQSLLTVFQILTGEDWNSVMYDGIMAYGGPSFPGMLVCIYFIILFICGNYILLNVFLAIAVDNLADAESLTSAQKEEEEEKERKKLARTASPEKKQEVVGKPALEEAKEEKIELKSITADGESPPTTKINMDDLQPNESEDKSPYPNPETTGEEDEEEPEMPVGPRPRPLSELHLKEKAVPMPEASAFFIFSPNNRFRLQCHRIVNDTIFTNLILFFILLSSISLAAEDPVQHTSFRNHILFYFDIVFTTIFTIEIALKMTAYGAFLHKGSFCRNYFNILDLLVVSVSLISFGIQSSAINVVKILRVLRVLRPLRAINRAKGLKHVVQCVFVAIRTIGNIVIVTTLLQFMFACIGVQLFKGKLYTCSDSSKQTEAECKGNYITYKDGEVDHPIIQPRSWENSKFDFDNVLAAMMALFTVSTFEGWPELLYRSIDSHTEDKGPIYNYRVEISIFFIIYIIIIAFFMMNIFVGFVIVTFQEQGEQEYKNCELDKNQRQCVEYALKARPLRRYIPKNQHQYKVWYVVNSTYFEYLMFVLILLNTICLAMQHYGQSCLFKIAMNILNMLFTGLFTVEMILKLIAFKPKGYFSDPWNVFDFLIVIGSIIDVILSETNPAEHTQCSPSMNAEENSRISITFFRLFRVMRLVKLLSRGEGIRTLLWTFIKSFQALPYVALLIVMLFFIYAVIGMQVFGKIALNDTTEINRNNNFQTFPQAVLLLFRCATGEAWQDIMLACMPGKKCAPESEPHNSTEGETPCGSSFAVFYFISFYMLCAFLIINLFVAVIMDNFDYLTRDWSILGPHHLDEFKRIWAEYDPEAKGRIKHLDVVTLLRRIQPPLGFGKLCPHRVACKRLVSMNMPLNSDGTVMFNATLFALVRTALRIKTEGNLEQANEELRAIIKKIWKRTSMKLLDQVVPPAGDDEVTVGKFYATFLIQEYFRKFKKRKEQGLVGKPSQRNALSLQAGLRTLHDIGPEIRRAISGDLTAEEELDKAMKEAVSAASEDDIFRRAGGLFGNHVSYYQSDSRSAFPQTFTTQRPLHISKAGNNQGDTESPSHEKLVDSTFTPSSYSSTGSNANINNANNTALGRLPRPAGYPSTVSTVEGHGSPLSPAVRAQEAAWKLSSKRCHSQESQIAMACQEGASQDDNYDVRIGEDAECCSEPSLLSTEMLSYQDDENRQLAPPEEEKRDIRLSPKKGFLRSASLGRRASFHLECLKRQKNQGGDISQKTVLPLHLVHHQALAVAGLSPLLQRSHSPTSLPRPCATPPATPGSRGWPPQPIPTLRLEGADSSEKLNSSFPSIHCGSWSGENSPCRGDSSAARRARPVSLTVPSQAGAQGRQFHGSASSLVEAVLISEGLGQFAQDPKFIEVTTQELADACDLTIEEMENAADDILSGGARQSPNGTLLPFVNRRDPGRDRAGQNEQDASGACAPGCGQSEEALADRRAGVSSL
# assay_remarks: Inhibition of [3H]nitrendipine binding to calcium channels in Rabbit cardiac muscle.
# Type: tissue-based, Muscle tissue

[
  {
    "molecule": "CCCCN(CCCC)CCCOc1ccc(C(=O)c2cn3cccc(C)c3n2)cc1",
    "target_entity": "Voltage-dependent L-type calcium channel subunit alpha-1C (Oryctolagus cuniculus)",
    "IC50 [µM]": 6
  },
  {
    "molecule": "CCCCN(CCCC)CCCOc1ccc(C(=O)c2cnc3nc(C)ccn23)cc1",
    "target_entity": "Voltage-dependent L-type calcium channel subunit alpha-1C (Oryctolagus cuniculus)",
    "IC50 [µM]": 6.1
  },
  {
    "molecule": "CCCCN(CCCC)CCCOc1ccc(C(=O)c2cnc3c(C)cccn23)cc1",
    "target_entity": "Voltage-dependent L-type calcium channel subunit alpha-1C (Oryctolagus cuniculus)",
    "IC50 [µM]": 0.5
  },
  {
    "molecule": "CC(C)COCC(CN(Cc1ccccc1)c1ccccc1)N1CCCC1 (centres undefined)",
    "target_entity": "Voltage-dependent L-type calcium channel subunit alpha-1C (Oryctolagus cuniculus)",
    "IC50 [µM]": 22
  }
]
